Tested on: Mahlavu
test_name: SRB cytotoxicity assay
Format: cell-based, human
run_conditions: Homo sapiens, Mahlavu, 72 h, 72 h treatment
quantity_name: IC50 (µM)

INSERT INTO assay_data (smiles_repr, output_unit, inequality_symbol, measured_value) VALUES
  ('Cc1ccccc1COc1ccc(-c2ccnn2-c2ccc(Cl)cc2)cc1F', 'µM', '>', 20),
  ('Cc1ccccc1COc1ccc(-c2[nH]ncc2-c2ccc(Cl)cc2)cc1', 'µM', '=', 11),
  ('Cc1ccccc1COc1ccc(-c2noc(C)c2-c2ccc(Cl)cc2)cc1', 'µM', '=', 3.2),
  ('Cc1ccccc1COc1ccc(-c2ccnn2-c2ccc(Cl)cc2)cc1', 'µM', '=', 3.7);

----------
Test system: MCF7
test_name: SRB cytotoxicity assay
Assay type: cell-based, human
run_conditions: Homo sapiens, MCF7, 72 h, 72 h treatment
For each record, check the reported IC50: if it is below 10 µM write rule met, else write rule not met.

INSERT INTO measurements (smiles_repr, answer_label) VALUES
  ('Cc1ccccc1C(=O)Nc1ccc(-c2ccnn2-c2ccc(Cl)cc2)cc1', 'rule not met'),
  ('Cc1ccccc1COc1ccc(-c2noc(C)c2-c2ccc(Cl)cc2Cl)cc1', 'rule not met'),
  ('COc1cccc(COc2ccc(-c3noc(C)c3-c3ccc(Cl)cc3)cc2)c1', 'rule not met'),
  ('Cc1ccccc1COc1ccc(-c2noc(C)c2-c2ccncc2)cc1', 'rule not met'),
  ('Cc1cc(-c2ccc(Cl)cc2)n(-c2ccc(OCc3ccccc3C)cc2)n1', 'rule not met'),
  ('Cc1onc(-c2ccc(OCc3cccc(F)c3)cc2)c1-c1ccc(Cl)cc1', 'rule not met'),
  ('Cc1onc(-c2ccc(OCc3ccccc3OC(F)F)cc2)c1-c1ccc(Cl)cc1', 'rule met'),
  ('Cc1onc(-c2ccc(OCc3cccc(C#N)c3)cc2)c1-c1ccc(Cl)cc1', 'rule not met'),
  ('Cc1ccccc1COc1ccc(-n2nccc2-c2ccc(Cl)cc2)cc1', 'rule not met'),
  ('Cc1ccc(-c2c(-c3ccc(OCc4ccccc4C)cc3)noc2C)nc1', 'rule not met'),
  ('Cc1ccccc1COc1ccc(-c2noc(C)c2-c2ccc(Cl)cc2)c(F)c1', 'rule met'),
  ('Cc1ccccc1COc1ccc(-c2noc(C)c2-c2ccc(C#N)cc2)cc1', 'rule not met'),
  ('Cc1noc(C)c1COc1ccc(-c2noc(C)c2-c2ccc(Cl)cc2)cc1', 'rule not met'),
  ('Cc1ncccc1COc1ccc(-c2noc(C)c2-c2ccc(Cl)cc2)cc1', 'rule met'),
  ('Cc1ccccc1COc1ccc(-c2nn(C)cc2-c2ccc(Cl)cc2)cc1', 'rule not met'),
  ('Cc1onc(-c2ccc(OCc3ccc(Cl)nc3)cc2)c1-c1ccc(Cl)cc1', 'rule not met'),
  ('Cc1cc(COc2ccc(-c3noc(C)c3-c3ccc(Cl)cc3)cc2)n(C)n1', 'rule not met'),
  ('Cc1onc(-c2ccc(OCc3ccccc3OC(F)(F)F)cc2)c1-c1ccc(Cl)cc1', 'rule not met'),
  ('Cc1ccccc1COc1ccc(-c2ccnn2-c2ccc(Cl)cc2)c(F)c1', 'rule met'),
  ('Cc1ccccc1COc1ccc(-c2noc(C)c2-c2cccc(C(F)(F)F)c2)cc1', 'rule not met'),
  ('Cc1ccccc1CNc1ccc(-c2noc(C)c2-c2ccc(Cl)cc2)cc1', 'rule not met'),
  ('Cc1onc(-c2ccc(OCc3ccc(C(=O)O)cc3)cc2)c1-c1ccc(Cl)cc1', 'rule not met'),
  ('Cc1ccccc1COc1ccc(-c2noc(N)c2-c2ccc(Cl)cc2)cc1', 'rule met'),
  ('Cc1ccccc1COc1ccc(-c2ccnn2-c2ccc(Cl)cc2)nc1', 'rule not met'),
  ('COC(=O)c1cccc(COc2ccc(-c3noc(C)c3-c3ccc(Cl)cc3)cc2)c1', 'rule not met'),
  ('Cc1ccc(-c2c(-c3ccc(OCc4ccccc4C)cc3)noc2C)cc1', 'rule met'),
  ('COc1ccc(COc2ccc(-c3noc(C)c3-c3ccc(Cl)cc3)cc2)cc1', 'rule not met'),
  ('Cc1cccc(COc2ccc(-c3noc(C)c3-c3ccc(Cl)cc3)cc2)c1C', 'rule not met'),
  ('COC(=O)c1ccc(COc2ccc(-c3noc(C)c3-c3ccc(Cl)cc3)cc2)cc1', 'rule not met');

----------
quantity_name: melting point

INSERT INTO assay_data (smiles_repr, quantity_name, measured_value) VALUES
  ('Cc1onc(-c2ccc(OCc3ccc(C(F)(F)F)o3)cc2)c1-c1ccc(Cl)cc1', 'melting point', '105.7 to 106.8 °C'),
  ('COc1ccc(COc2ccc(-c3noc(C)c3-c3ccc(Cl)cc3)cc2)cc1', 'melting point', '126.1 to 127.4 °C'),
  ('Cc1ccc(-c2c(-c3ccc(OCc4ccccc4C)cc3)noc2C)nc1', 'melting point', '121.4 to 122.3 °C'),
  ('Cc1onc(-c2ccc(OCc3cccc(C#N)c3)cc2)c1-c1ccc(Cl)cc1', 'melting point', '114.4 to 115.6 °C'),
  ('Cc1ccccc1COc1ccc(-c2noc(C)c2-c2cccc(C(F)(F)F)c2)cc1', 'melting point', '120.7 to 122.4 °C'),
  ('Cc1ccccc1COc1ccc(-c2onc(C)c2-c2ccc(Cl)cc2)cc1', 'melting point', '153.8 to 154.9 °C'),
  ('Cc1ccccc1COc1ccc(-c2[nH]ncc2-c2ccc(Cl)cc2)cc1', 'melting point', '127.8 to 129.8 °C'),
  ('Cc1cc(-c2ccc(OCc3ccccc3C)cc2)n(-c2ccc(Cl)cc2)n1', 'melting point', '111.8 to 113.6 °C'),
  ('Cc1ccccc1CNc1ccc(-c2noc(C)c2-c2ccc(Cl)cc2)cc1', 'melting point', '134.9 to 137 °C');

----------
Listing of entries alongside the reported melting point.
quantity_name: melting point

INSERT INTO measurements (smiles_repr, measured_value) VALUES
  ('Cc1onc(-c2ccc(OCc3ccccc3)cc2)c1-c1ccc(Cl)cc1', '114.7 to 115.7 °C'),
  ('Cc1onc(-c2ccc(OCc3ccccc3Cl)cc2)c1-c1ccc(Cl)cc1', '105.2 to 106.4 °C'),
  ('Cc1ccccc1CNc1ccc(-c2ccnn2-c2ccc(Cl)cc2)cc1', '141.5 to 142.8 °C'),
  ('COc1ccc(-c2c(-c3ccc(OCc4ccccc4C)cc3)noc2C)cc1', '121.3 to 122.7 °C'),
  ('Cc1onc(-c2ccc(OCc3ccc(Cl)nc3)cc2)c1-c1ccc(Cl)cc1', '168.2 to 170.8 °C'),
  ('Cc1cc(COc2ccc(-c3noc(C)c3-c3ccc(Cl)cc3)cc2)n(C)n1', '156.4 to 157.9 °C'),
  ('Cc1ccc(COc2ccc(-c3noc(C)c3-c3ccc(Cl)cc3)cc2)cc1', '116.9 to 118.5 °C'),
  ('Cc1cccc(COc2ccc(-c3noc(C)c3-c3ccc(Cl)cc3)cc2)c1', '119.9 to 121 °C');
